tested_on: Tyrosine-protein phosphatase non-receptor type 1 (Homo sapiens) (UniProt P18031)
Sequence (P18031 whole entry): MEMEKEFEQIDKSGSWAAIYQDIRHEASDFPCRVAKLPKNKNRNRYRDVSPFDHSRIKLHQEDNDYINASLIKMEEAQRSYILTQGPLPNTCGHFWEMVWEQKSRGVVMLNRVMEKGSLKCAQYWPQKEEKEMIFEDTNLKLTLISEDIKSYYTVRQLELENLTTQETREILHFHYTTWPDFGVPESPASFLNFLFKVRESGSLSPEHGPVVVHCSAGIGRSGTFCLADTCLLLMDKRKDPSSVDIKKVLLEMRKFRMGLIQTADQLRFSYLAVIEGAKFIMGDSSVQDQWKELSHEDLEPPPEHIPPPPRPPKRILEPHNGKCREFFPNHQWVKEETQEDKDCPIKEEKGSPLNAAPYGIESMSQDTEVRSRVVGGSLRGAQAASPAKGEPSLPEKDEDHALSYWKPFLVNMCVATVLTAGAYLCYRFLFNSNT
experiment: Inhibition of recombinant human PTP1B using pNPP as substrate preincubated for 5 mins followed by substrate addition assessed as reduction in p-nitrophenol release at 50 uM relative to control
metric_name: inhibition (%)
Hi! Could you send only the number? It should be in %, unit omitted.

Field: example entries. Status: answers known.
mol_smiles | units_symbol | value_measured
O=C1NC(=S)NC(=O)C1=Cc1ccc(OCc2ccc(Cl)cc2)cc1-c1cc(Cl)c(O)c(Cl)c1 | % | 78.6
O=C1NC(=S)NC(=O)C1=Cc1cc(-c2cc(Cl)c(O)c(Cl)c2)ccc1OCc1ccccc1 | % | 87.7

Please find the next compound below.
Measured inhibition of `O=C1NC(=S)NC(=O)C1=Cc1cc(-c2cc(Cl)c(O)c(Cl)c2)ccc1OCc1cc(F)cc(F)c1` : 92.3
